These entries and their values trace back to patent US20240043420A1.

# Target Entity: ABL1 (Homo sapiens)
# Construct: purchased Carna Biosciences
# Assay Explanation: Luminescence-based ABL kinase assay (ADP-Glo, 300 μM ATP)
# Assay type: biochemical
Measured Parameter: IC50 (nM)

Solved cases (2 shown):
• COc1cc2[nH]ncc2cc1-c1n[nH]c2nc(NC(=O)[C@@H]3C[C@@H]3F)ccc12 [Compound 82] = 13.5
• COc1cc2cn[nH]c2cc1-c1c[nH]c2nc(NC(=O)[C@H]3C[C@H]3F)ccc12 [Compound 59] = 8.62

(a) CN(C)c1ncccc1-c1c[nH]c2nc(NC(=O)C3CC3)ccc12 [Compound 65]
(b) O=C(Nc1ccc2c(-c3ccc4[nH]cnc4c3)c[nH]c2n1)C1CC1 [Compound 19]
Ask | Looking at a and b , which one comes out lower in IC50 terms? Please reply using the label of the selected record.
Reply | b
(b: 11.2 nM, a: 158 nM)

====

# Target Entity: ABL1 (Homo sapiens, UniProt P00519)
# Construct: purchased Carna Biosciences
# Assay Explanation: Luminescence-based ABL kinase assay (ADP-Glo, 300 μM ATP)
# Assay type: biochemical
Measured Parameter: IC50 (nM)

(a) COc1c(-c2c[nH]c3nc(NC(=O)[C@@H]4C[C@@H]4F)ccc23)ccc2cn[nH]c12 [Compound 81]
(b) COc1ncccc1-c1n[nH]c2nc(NC(=O)[C@@H]3C[C@@H]3F)ccc12 [Compound 77]
(c) COc1cc2nccn2cc1-c1c[nH]c2nc(NC(=O)[C@@H]3C[C@@H]3F)ccc12 [Compound 72]
Ask | Your job: order these 3 records by IC50, ascending. Provide the labels, sequenced as the question asks.
Reply | a, c, b
(a: 12.2 nM, c: 70.2 nM, b: 106 nM)

====

# Target Entity: ABL1 (T315I) (Homo sapiens, UniProt P00519, T315I)
# Assay Explanation: Luminescence-based ABL kinase assay (ADP-Glo, 300 μM ATP), T315I mutant
# Assay type: biochemical
# Procedure: Kinase activity of ABL1 was measured using the ADP-Glo system (Promega), which measures formation of ADP using a luminescence-based method. Compounds were serially diluted in DMSO. […] During this step, ADP was converted to ATP, a substrate for luciferase, to produce luminescence signal. Luminescence was measured on an Envision plate reader (Perkin Elmer). Luminescence signal positively correlates with kinase activity. […] IC50 values were calculated using the XLFit software.
Measured Parameter: IC50 (nM)

Study these solved cases before continuing.
- COc1nc2nccn2cc1-c1c[nH]c2nc(NC(=O)[C@@H]3C[C@@H]3F)ccc12: 97.1
- COc1ccc(F)cc1-c1n[nH]c2nc(NC(=O)[C@@H]3C[C@@H]3F)ccc12: 12.9
- COc1ccccc1-c1c[nH]c2nc(NC(=O)[C@@H]3C[C@@H]3CN3CCN(C)CC3)ccc12 (racemic): 26.8

(P) COc1c(-c2c[nH]c3nc(NC(=O)[C@H]4C[C@H]4F)ccc23)ccc2[nH]cnc12
(Q) COc1cccc(OC)c1-c1c[nH]c2nc(NC(=O)C3CC3CN3CCNCC3)ccc12 (single isomer, unassigned) [Example S150, Enantiomer 2]
(R) O=C(Nc1ccc2c(-c3cccnc3OCC(F)(F)F)c[nH]c2n1)[C@@H]1C[C@@H]1F
Ask | Rank descending by IC50. Rank them, then answer with their labels in that order.
Reply | R, Q, P
(R: 3860 nM, Q: 27.2 nM, P: 4.41 nM)
